Numbers sourced from patent US20250270202A1.

- System: MV-4-11 cells
- run_description: Inhibition of MV-4-11 cell proliferation (MTS, 7 days)
- Type: cell-based
- condition_summary: Homo sapiens, MV4-11, 168 h, 7 days, MTS, Table 3, read-out: MV-4-11 Cells Inhibition Activity IC50
pIC50: −log10 of the molar value.
measurement_label: pIC50

| molecule | pIC50 |
| --- | --- |
| O=C1CCC(N2C(=O)c3cccc(NCc4ncc(-c5cccc(C(F)(F)F)c5)o4)c3C2=O)C(=O)N1 (stereo not shown) | < 4.70 |
| O=C1CCC(N2C(=O)c3cccc(NCc4cnc(-c5ccc(OCCO)cc5)o4)c3C2=O)C(=O)N1 (stereo not shown) | > 6.00 |
| O=C1CCC(N2C(=O)c3cccc(NCc4cnc(-c5cccc(Cl)c5)s4)c3C2=O)C(=O)N1 (stereo not shown) | > 6.00 |

pIC50 lookup needed for Cc1ccccc1-c1ncc(CNc2cccc3c2C(=O)N(C2CCC(=O)NC2=O)C3=O)o1 (stereo not shown) , thanks.
4.70 to 6.00
